Source listed as PubChem BioAssay (NCI).

Tested on: RPMI-8226 leukemia
METHOD_SUMMARY: NCI-60 one-dose screen, 48 h (100 = growth as untreated, 0 = no growth, -100 = all killed)
ASSAY_CONDITIONS: 10 µM unless noted
Description: Growth inhibition of the RPMI-8226 human tumor cell line is measured as a screen for anti-cancer activity. Cells are grown in 96 well plates and exposed to the test compound for 48 hours. Compounds are tested at a single concentration, which is 10^-5 M for most compounds. The reported endpoint is percent growth (GI% or GIPRCNT), where numbers from 0 - 100% represent growth inhibition, and numbers from -100% - 0 represent cell death. For example, a value of 40 represents 60% growth inhibition. […]
Compounds without any hit were thinned out: in the full panel of roughly 83,000, 20% have a hit.
MEASUREMENT_NAME: growth (%)
Report only the number, with the unit % understood.

CC1(c2ccccc2)NC(=O)N(NC(=O)CSc2nc(-c3cccs3)nc3ccccc23)C1=O (configuration not stated); 72.9
O=C(NCCCNc1cc(-c2cn(-c3ccccc3)nc2-c2cccc(O)c2)ccn1)c1cccc(O)c1; 45.2
N#Cc1c(N)nn(C(=O)c2ccc(NC(=O)c3ccccn3)cc2)c1-c1ccc(Cl)cc1; 43.6
O=C(COc1ccc(/C=C2\Oc3ccccc3C2=O)cc1)Nc1nc2ccccc2s1; -56.8
Cc1ccc(C2SCC(=O)N2Cc2ccccc2)cc1 (configuration not stated); 96.7

Param readout = growth; param system = RPMI-8226 leukemia; param query = COc1cc(/C=C/C(=O)c2ccc(Nc3nc(Nc4ccc(F)cc4)nc(Nc4ccc(Cl)cc4)n3)cc2)cc(OC)c1OC ; response: value
-47.5

Also need Cc1nn(-c2ccccc2)c2nc3c(c(-c4ccc(Cl)cc4)c12)CNC1(CCSCC1)N3 , thanks.
109
